Target: UniProt:Q9BXC0
Test: GPR81 agonist ligand activity, GTPγS binding assay (species of receptor not given)
Assay type: biochemical
Set-up: expressed in transfected cells; host or cells: GPR81-expressing cells / membranes (CHO)
Conditions: yes/no
Sequence (Q9BXC0 whole entry, species assumed): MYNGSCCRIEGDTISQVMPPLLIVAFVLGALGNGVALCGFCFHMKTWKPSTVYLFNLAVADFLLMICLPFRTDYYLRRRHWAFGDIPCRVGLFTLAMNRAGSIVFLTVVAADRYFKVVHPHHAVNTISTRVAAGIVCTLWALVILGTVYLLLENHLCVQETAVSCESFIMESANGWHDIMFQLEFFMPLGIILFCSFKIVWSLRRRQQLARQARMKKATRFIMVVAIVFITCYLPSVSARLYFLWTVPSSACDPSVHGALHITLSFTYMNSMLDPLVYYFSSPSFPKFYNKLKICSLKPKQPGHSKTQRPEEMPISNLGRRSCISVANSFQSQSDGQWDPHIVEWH
Measured Parameter: GPR81 agonist activity

Study these solved cases before continuing.
{"Compound": "O=C(O)C(F)(F)Cl [chlorodifluoroacetate (CDFA), chlorodifluoroacetate]", "Test System": "UniProt:Q9BXC0", "GPR81 agonist activity": "yes"}
{"Compound": "NCCCC(=O)O", "Test System": "UniProt:Q9BXC0", "GPR81 agonist activity": "no"}
{"Compound": "O=C(O)CCCO [γ-hydroxybutyric acid (GHB), γ-hydroxybutyric acid]", "Test System": "UniProt:Q9BXC0", "GPR81 agonist activity": "yes"}
{"Compound": "CC(C)(O)C(=O)[O-].[Na+] [sodium hydroxyisobutyrate]", "Test System": "UniProt:Q9BXC0", "GPR81 agonist activity": "yes"}

Now examine the next entry.
What measured GPR81 agonist activity goes with CCC(O)C(=O)O (stereo not drawn) [α-hydroxybutyrate] ?
yes

###

Molecular target: GPR81 (Homo sapiens, UniProt Q9BXC0)
Settings: read-out: EC50, inhibition of forskolin-induced β-gal expression in GPR81-expressing cells; 5 μM forskolin
Sequence (Q9BXC0 whole entry): as the sequence (Q9BXC0 whole entry, species assumed) above
pEC50: −log10 of the molar value.
Measured Parameter: pEC50

What measured pEC50 goes with C[C@H](O)C(=O)O [L-lactate] ?
~2.52
